# credit: paper PMC11882969

- target-of-assay: hCB1 (Homo sapiens)
- assay-details: bioSensAll ebBRET signaling profiling, hCB1
- Assay type: cell-based
- Parameters: host or cells: HEK293SL cells, transient PEI transfection
- experimental-setup: Log [Compound] (M) -9.61989; single replicate values, FigS6a
Collected Gi1 hCB1 values appear next to each entry.

{"molecule": "Cc1nn(Cc2ccc(Cl)cc2)c(C)c1C(=O)OCC1CSc2ccccc2O1 (centres unmarked)", "Gi1 hCB1": -0.7093}
{"molecule": "Cc1c(C(=O)OCC2CSc3ccccc3O2)cnn1Cc1ccccc1 (centres unmarked)", "Gi1 hCB1": 0.05088}
{"molecule": "COC(=O)[C@@H]1[C@@H]2CCC[C@@H]2CN1C(=O)c1cc(C)n(-c2cccc(Cl)c2)n1 (racemic)", "Gi1 hCB1": 0.8444}
{"molecule": "Cc1cc(C(=O)N2CC3(CCC3)[C@H]2[C@H]2CCCO2)nn1-c1cccc(C(F)(F)F)c1", "Gi1 hCB1": 2.402}
{"molecule": "Cc1nc(CC2CC2)oc1-c1nc(Cc2cc3c(cc2Br)OCO3)no1", "Gi1 hCB1": 0.4151}

---

- target-of-assay: hCB1 (Homo sapiens)
- assay-details: bioSensAll ebBRET signaling profiling, hCB1
- Format: cell-based
- Design: host or cells: HEK293SL cells, transient PEI transfection
- experimental-setup: Barr2+GRK2 biosensor; Log [Compound] (M) -5.47381
Quick rule: Barr2+GRK2 hCB1 response of at least -40 means yes (1), below that means no (0).

{"molecule": "Cn1nc(-c2nnc(C(C)(C)Oc3ccc(Cl)cc3)o2)c2ccccc2c1=O", "target-of-assay": "hCB1 (Homo sapiens)", "assigned-label": "no (0)"}
{"molecule": "Brc1cc2c(cc1Cc1noc(-c3cnn(CC4CC4)c3)n1)OCO2", "target-of-assay": "hCB1 (Homo sapiens)", "assigned-label": "yes (1)"}
{"molecule": "Cc1c(C(=O)OCC2CSc3ccccc3O2)cnn1Cc1ccccc1 (stereo not drawn)", "target-of-assay": "hCB1 (Homo sapiens)", "assigned-label": "no (0)"}
{"molecule": "Cc1nn(Cc2ccc(Cl)cc2)c(C)c1C(=O)OCC1CSc2ccccc2O1 (stereo not drawn)", "target-of-assay": "hCB1 (Homo sapiens)", "assigned-label": "no (0)"}
{"molecule": "Cc1nc(CC2CC2)oc1-c1nc(Cc2cc3c(cc2Br)OCO3)no1", "target-of-assay": "hCB1 (Homo sapiens)", "assigned-label": "yes (1)"}
{"molecule": "Cn1nc(-c2nnc(C(C)(C)Oc3ccc(C(F)(F)F)cc3)o2)c2ccccc2c1=O", "target-of-assay": "hCB1 (Homo sapiens)", "assigned-label": "no (0)"}

---

- target-of-assay: UniProtKB P21554
- assay-details: bioSensAll ebBRET signaling profiling, hCB1
- Format: cell-based
- Set-up: host or cells: HEK293SL cells, transient PEI transfection
- experimental-setup: Gi1 biosensor; Log [Compound] (M) -10.0969
Listing: Gi1 hCB1 response of selected compounds
observation-type: Gi1 hCB1 response

{"compound": "Cc1cc(C(=O)N(C)C(c2ccco2)c2ccco2)nn1-c1cccc(C(F)(F)F)c1 [‘4388]", "observed": -9.456}
{"compound": "Cc1cc(C(=O)N2CC3(CCC3)[C@H]2[C@H]2CCCO2)nn1-c1cccc(C(F)(F)F)c1 [‘1651]", "observed": -10.7993}
{"compound": "Cc1cc(C(=O)N(C)C(c2ccccc2)c2ccco2)nn1-c1cccc(C(F)(F)F)c1 (stereo not shown) [‘1082]", "observed": -2.16}
{"compound": "COC(=O)C(NC(=O)c1cc(C)n(-c2cccc(F)c2)n1)c1cccs1 (stereo not shown) [‘51486]", "observed": -6.323}

---

- target-of-assay: UniProt:P21554
- assay-details: bioSensAll ebBRET signaling profiling, hCB1
- Assay type: cell-based
- Set-up: host or cells: HEK293SL cells, transient PEI transfection
- experimental-setup: Gi1 biosensor; Log [Compound] (M) -11.9208
Recorded measurements of Gi1 hCB1 response, one per entry

{"compound": "Cc1cc(C(=O)N2CC3(CCC3)[C@@H]2[C@H]2CCCO2)nn1-c1cccc(C(F)(F)F)c1 (single isomer, unassigned) [compound 430]", "Gi1 hCB1 response": -0.9963}
{"compound": "Cc1cc(C(=O)N(C)C(c2ccco2)c2ccco2)nn1-c1cccc(C(F)(F)F)c1 [‘4388]", "Gi1 hCB1 response": 7.912}
{"compound": "COC(=O)[C@@H]1[C@@H]2CCC[C@@H]2CN1C(=O)c1cc(C)n(-c2cccc(C(F)(F)F)c2)n1 [‘6439]", "Gi1 hCB1 response": -11.6498}
{"compound": "Cc1cc(C(=O)NC(c2ccco2)c2ccco2)nn1-c1cccc(C(F)(F)F)c1 [‘1090]", "Gi1 hCB1 response": -2.429}
{"compound": "COC(=O)C(NC(=O)c1cc(C)n(-c2cccc(F)c2)n1)c1cccs1 (centres unmarked) [‘51486]", "Gi1 hCB1 response": -6.838}

---

- assay-details: Pharmacokinetics: plasma, brain, CSF
- experimental-setup: male, CD-1, mouse, plasma, intraperitoneal, 0.2 mg/kg

{"chemical-smiles": "COC(=O)[C@@](C)(NC(=O)c1cc(C)n(-c2cccc(C(F)(F)F)c2)n1)c1cccs1", "uom": "ng/mL", "concentration at 120 min": 6.15}
{"chemical-smiles": "Cc1cc(C(=O)NC(C)(c2ccco2)c2ccco2)nn1-c1cccc(C(F)(F)F)c1", "uom": "ng/mL", "concentration at 120 min": 3.55}

---

- target-of-assay: hCB1 (Homo sapiens, UniProt P21554)
- Sequence (P21554 whole entry): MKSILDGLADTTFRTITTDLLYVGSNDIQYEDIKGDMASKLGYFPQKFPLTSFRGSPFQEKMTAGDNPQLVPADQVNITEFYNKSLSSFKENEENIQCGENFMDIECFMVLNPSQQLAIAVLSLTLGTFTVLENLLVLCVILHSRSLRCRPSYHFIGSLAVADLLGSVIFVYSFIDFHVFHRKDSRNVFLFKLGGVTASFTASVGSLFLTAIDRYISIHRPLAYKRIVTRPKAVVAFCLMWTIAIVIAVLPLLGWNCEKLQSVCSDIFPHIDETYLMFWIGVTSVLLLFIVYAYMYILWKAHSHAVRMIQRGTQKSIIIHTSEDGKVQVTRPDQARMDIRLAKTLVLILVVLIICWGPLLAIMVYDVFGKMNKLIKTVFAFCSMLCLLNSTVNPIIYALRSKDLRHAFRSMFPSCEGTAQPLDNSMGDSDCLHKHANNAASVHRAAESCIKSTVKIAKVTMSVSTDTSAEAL
- assay-details: bioSensAll ebBRET signaling profiling, hCB1
- Type: cell-based
- Parameters: host or cells: HEK293SL cells, transient PEI transfection
- experimental-setup: Gi1 biosensor; Log [Compound] (M) -7.55284
Gi1 hCB1 response: recorded values

{"compound": "Cc1cc(C(=O)N2CC3(CCC3)[C@H]2[C@@H]2CCCO2)nn1-c1cccc(C(F)(F)F)c1", "target-of-assay": "hCB1 (Homo sapiens, UniProt P21554)", "Gi1 hCB1 response": 0.9509}
{"compound": "Cc1cc(C(=O)N2CC3(CCC3)[C@@H]2[C@@H]2CCCO2)nn1-c1cccc(C(F)(F)F)c1", "target-of-assay": "hCB1 (Homo sapiens, UniProt P21554)", "Gi1 hCB1 response": 0.369}
{"compound": "CC(=O)C(c1cccs1)N(C)C(=O)c1cc(C)n(-c2cccc(C(F)(F)F)c2)n1 (stereo not drawn)", "target-of-assay": "hCB1 (Homo sapiens, UniProt P21554)", "Gi1 hCB1 response": -0.3025}
{"compound": "Cc1cc(C(=O)NC(c2ccco2)c2ccco2)nn1-c1cccc(C(F)(F)F)c1", "target-of-assay": "hCB1 (Homo sapiens, UniProt P21554)", "Gi1 hCB1 response": 35.6645}
{"compound": "COC(=O)C(NC(=O)c1cc(C)n(-c2cccc(F)c2)n1)c1cccs1 (stereo not drawn)", "target-of-assay": "hCB1 (Homo sapiens, UniProt P21554)", "Gi1 hCB1 response": -15.3428}
{"compound": "COC(=O)[C@@H]1[C@@H]2CCC[C@@H]2CN1C(=O)c1cc(C)n(-c2cccc(C(F)(F)F)c2)n1", "target-of-assay": "hCB1 (Homo sapiens, UniProt P21554)", "Gi1 hCB1 response": 19.617}
{"compound": "COC(=O)[C@@H]1[C@@H]2CCC[C@@H]2CN1C(=O)c1cc(C)n(-c2cccc(Cl)c2)n1 (racemic)", "target-of-assay": "hCB1 (Homo sapiens, UniProt P21554)", "Gi1 hCB1 response": 0.9285}
{"compound": "Cc1cc(C(=O)N2CC3(CCC3)[C@@H]2[C@H]2CCCO2)nn1-c1cccc(C(F)(F)F)c1 (single isomer, unassigned)", "target-of-assay": "hCB1 (Homo sapiens, UniProt P21554)", "Gi1 hCB1 response": 0.7047}
{"compound": "Cc1cc(C(=O)NC(c2ccccc2)c2ccco2)nn1-c1cccc(C#N)c1 (stereo not drawn)", "target-of-assay": "hCB1 (Homo sapiens, UniProt P21554)", "Gi1 hCB1 response": 13.0593}

---

- target-of-assay: hCB1 (Homo sapiens)
- assay-details: bioSensAll ebBRET signaling profiling, hCB1
- Format: cell-based
- Set-up: host or cells: HEK293SL cells, transient PEI transfection
- experimental-setup: Log [Compound] (M) -7.55284; single replicate values, FigS6a

{"molecule": "COC(=O)[C@@H]1[C@@H]2CCC[C@@H]2CN1C(=O)c1cc(C)n(-c2cccc(Cl)c2)n1 (racemic) [‘10010]", "target-of-assay": "hCB1 (Homo sapiens)", "Gi1 hCB1": 3.804}
{"molecule": "Cc1cc(C(=O)NC(c2ccccc2)c2ccco2)nn1-c1cccc(C#N)c1 (stereo not shown) [‘12565]", "target-of-assay": "hCB1 (Homo sapiens)", "Gi1 hCB1": 6.888}
{"molecule": "Cc1c(C(=O)OCC2CSc3ccccc3O2)cnn1Cc1ccccc1 (stereo not shown) [‘7800]", "target-of-assay": "hCB1 (Homo sapiens)", "Gi1 hCB1": -2.087}
{"molecule": "Cc1cc(C(=O)N2CC3(CCC3)[C@@H]2[C@H]2CCCO2)nn1-c1cccc(C(F)(F)F)c1 (single isomer, unassigned) [compound 430]", "target-of-assay": "hCB1 (Homo sapiens)", "Gi1 hCB1": 0.274}
{"molecule": "Cn1nc(-c2nnc(C(C)(C)Oc3ccc(C(F)(F)F)cc3)o2)c2ccccc2c1=O [‘2153]", "target-of-assay": "hCB1 (Homo sapiens)", "Gi1 hCB1": 6.592}
{"molecule": "Cn1nc(-c2nnc(C(C)(C)Oc3ccc(Cl)cc3)o2)c2ccccc2c1=O [‘0450]", "target-of-assay": "hCB1 (Homo sapiens)", "Gi1 hCB1": -6.6323}
{"molecule": "Cc1cc(C(=O)N2CC3(CCC3)[C@@H]2[C@@H]2CCCO2)nn1-c1cccc(C(F)(F)F)c1 [‘3386]", "target-of-assay": "hCB1 (Homo sapiens)", "Gi1 hCB1": 0.9215}
{"molecule": "CC(=O)C(c1cccs1)N(C)C(=O)c1cc(C)n(-c2cccc(C(F)(F)F)c2)n1 (stereo not shown) [‘6829]", "target-of-assay": "hCB1 (Homo sapiens)", "Gi1 hCB1": 5.377}
{"molecule": "Cc1cc(C(=O)N2CC3(CCC3)[C@H]2[C@@H]2CCCO2)nn1-c1cccc(C(F)(F)F)c1 [‘5490]", "target-of-assay": "hCB1 (Homo sapiens)", "Gi1 hCB1": 7.104}
{"molecule": "Cc1cc(C(=O)NC(c2ccco2)c2ccco2)nn1-c1cccc(C(F)(F)F)c1 [‘1090]", "target-of-assay": "hCB1 (Homo sapiens)", "Gi1 hCB1": 37.9676}
{"molecule": "COC(=O)C(NC(=O)c1cc(C)n(-c2cccc(F)c2)n1)c1cccs1 (stereo not shown) [‘51486]", "target-of-assay": "hCB1 (Homo sapiens)", "Gi1 hCB1": 0.7982}
{"molecule": "COC(=O)C(NC(=O)c1cc(C)n(-c2cccc(C(F)(F)F)c2)n1)c1cccs1 (stereo not shown) [‘60154]", "target-of-assay": "hCB1 (Homo sapiens)", "Gi1 hCB1": 54.4325}
{"molecule": "COC(=O)[C@@H]1[C@@H]2CCC[C@@H]2CN1C(=O)c1cc(C)n(-c2cccc(C(F)(F)F)c2)n1 [‘6439]", "target-of-assay": "hCB1 (Homo sapiens)", "Gi1 hCB1": 26.2355}
{"molecule": "Cc1nc(CC2CC2)oc1-c1nc(Cc2cc3c(cc2Br)OCO3)no1 [‘7019]", "target-of-assay": "hCB1 (Homo sapiens)", "Gi1 hCB1": 0.08255}
{"molecule": "Cc1cc(C(=O)N(C)C(c2ccco2)c2ccco2)nn1-c1cccc(C(F)(F)F)c1 [‘4388]", "target-of-assay": "hCB1 (Homo sapiens)", "Gi1 hCB1": 2.355}
{"molecule": "COC(=O)[C@@H]1[C@@H]2CC[C@@H]2CN1C(=O)c1cc(C)n(-c2cccc(C(F)(F)F)c2)n1 [‘6448]", "target-of-assay": "hCB1 (Homo sapiens)", "Gi1 hCB1": 4.6215}
{"molecule": "Cc1cc(C(=O)NC(c2ccccc2)c2ccco2)nn1-c1cccc(C(F)(F)F)c1 (stereo not shown) [‘1081]", "target-of-assay": "hCB1 (Homo sapiens)", "Gi1 hCB1": 12.4531}
{"molecule": "Cc1nn(Cc2ccc(Cl)cc2)c(C)c1C(=O)OCC1CSc2ccccc2O1 (stereo not shown) [‘5463]", "target-of-assay": "hCB1 (Homo sapiens)", "Gi1 hCB1": -2.958}
{"molecule": "Cc1cc(C(=O)N2CC3(CCC3)[C@H]2[C@H]2CCCO2)nn1-c1cccc(C(F)(F)F)c1 [‘1651]", "target-of-assay": "hCB1 (Homo sapiens)", "Gi1 hCB1": 1.862}
{"molecule": "COc1cccc(C(NC(=O)c2cc(C)n(-c3cccc(C(F)(F)F)c3)n2)c2ccco2)c1 (stereo not shown) [‘1087]", "target-of-assay": "hCB1 (Homo sapiens)", "Gi1 hCB1": 3.064}
{"molecule": "Brc1cc2c(cc1Cc1noc(-c3cnn(CC4CC4)c3)n1)OCO2 [‘5424]", "target-of-assay": "hCB1 (Homo sapiens)", "Gi1 hCB1": -10.8449}
{"molecule": "Cc1cc(C(=O)N(C)C(c2ccccc2)c2ccco2)nn1-c1cccc(C(F)(F)F)c1 (stereo not shown) [‘1082]", "target-of-assay": "hCB1 (Homo sapiens)", "Gi1 hCB1": 1.23}
